Tested on: L1210 leukemia ip in BDF1 mice, survival T/C
Assay Notes: NCI In Vivo Anticancer Drug Screen. Data for tumor model L1210 Leukemia (intraperitoneal) in B6D2F1 (BDF1) mice
Condition Description: endpoint: mean survival time; dose: 150.0 mg/kg/injection; schedule: Q01DX001 (ip); vehicle: saline; higher = longer survival
Experimental: The antitumor activity of compounds was measured in mice bearing transplantable tumors. Survival or tumor size were measured and the results are expressed as the measurement made in the treated group (T) divided by the measurement made in the vehicle treated control group (C). The tumor model used in this assay is L1210 Leukemia (intraperitoneal) in B6D2F1 (BDF1) mice
Inconclusive results and toxic doses are left out.

[
  {
    "Compound": "CNC(=O)CCN1CCN(CC/C=C2\\c3ccccc3Sc3ccc(Cl)cc32)CC1",
    "T/C": "106 % of control"
  },
  {
    "Compound": "CC12CCC(/C(=C/N(O)/C=C3\\C(=O)C4(C)CCC3C4(C)C)C1=O)C2(C)C",
    "T/C": "91 % of control"
  },
  {
    "Compound": "CCOc1ccc(/C=N/NC(=S)NC23CC4CC(CC(C4)C2)C3)cc1OCC",
    "T/C": "95 % of control"
  },
  {
    "Compound": "O=[N+]([O-])c1ccc(S(=O)(=O)SC(F)(F)F)cc1",
    "T/C": "102 % of control"
  },
  {
    "Compound": "O=C1C=C(N2CCCC2)CC1",
    "T/C": "104 % of control"
  },
  {
    "Compound": "NCCCS",
    "T/C": "96 % of control"
  },
  {
    "Compound": "CC1(c2ccc[n+](CC(=O)c3ccccc3)c2)OCCO1",
    "T/C": "105 % of control"
  },
  {
    "Compound": "O=C(O)C(O)c1ccc([N+](=O)[O-])cc1 (centres undefined)",
    "T/C": "94 % of control"
  },
  {
    "Compound": "Cc1ccc(N=Nc2sc(N)nc2C)c(C)c1",
    "T/C": "103 % of control"
  }
]
